B1: Advillin, residues 785 to 819; numbered along this chain, O75366 (parent)
chain: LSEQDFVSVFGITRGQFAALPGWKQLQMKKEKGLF

- Variants of: B1
- Assay Explanation: abundance fitness (aPCA) (normalised: wild type 0, dead -1); higher = more abundant; growth selection in yeast, the domain comes from the species named
- Conditions: Homo sapiens
# reported abundance fitness; entries follow
Reported Endpoint: abundance fitness

• F6N = -0.928
• S8Y = -0.84
• F10V = -0.332
• V9C = -0.527
• P21F = -0.696
• F10G = -0.27
• K29L = -0.289
• T13Q = -0.871
• I12N = -0.471
• A19Q = -0.367
• F35N = -0.478
• V9L = -0.131

Values were extracted from the Human Domainome abundance scans (Beltran et al. 2025).
